Data provenance is patent US20260258115A1.

measured on: RSV prefusion F (preF), subtype B (respiratory syncytial virus, subtype B)
assay comment: BLI, IgG
Overview of reported pKd across a group of binders:
Would you please state pKd, meaning minus log10 of the concentration in mol/L, as a bare number?

| binder | value reported |
| --- | --- |
| ADI-20990 (antibody, V domains shown) VH: EVQLVESGGGVVQPGRSLRLSCSASGFPFHSYAMHWVRQAPGKGLEWVAGIWYEGSSESYADSVKGRLTISRDNSRNTLYLQMNSLRVEDTAVYYCARRGSFSGFDSWGQGSLVTVSS VL: DIVMTQSPLSLPVTPGEPASISCRSSQSLLHSNGYNYLDWYLQKPGQSPQLLISLGSNRASGVPDRFSGSVAGTDFTLKISRVEAEDVGVYYCMQSSQTPYTFGQGTKVDIK | 9.04 |

Consider the record given below.
Inquiry: Dear colleague, I am looking for the recorded pKd of the following binder: ADI-20979 (antibody, V domains shown, also called Ab 232) VH: EVQLQESGPGLVKPSETLSLTCTVSGGSLRSYYWSWIRQPPGKGLEWIGNIYYGGSTNYNSSLKGRVTISIDTSKNQFSLRLSSVTAADTAVYYCARDGLFPMGEWDYWGQGILVTVSS VL: QSALTQPASVSGSPGQSITISCTGTSNDVGDYNYVSWYQQHPGEAPKLMIYEVTNRPSGVSDRFSGSKSGNTASLTISGLQAEDEADYYCSSYTSSTSVVFGGGTQLTVL
Reply text: 8.40
